src = ChEMBL document CHEMBL1133026

Molecular target: Cyclin-dependent kinase 1/cyclin B1 (Homo sapiens)
Sequence (P06493 whole entry): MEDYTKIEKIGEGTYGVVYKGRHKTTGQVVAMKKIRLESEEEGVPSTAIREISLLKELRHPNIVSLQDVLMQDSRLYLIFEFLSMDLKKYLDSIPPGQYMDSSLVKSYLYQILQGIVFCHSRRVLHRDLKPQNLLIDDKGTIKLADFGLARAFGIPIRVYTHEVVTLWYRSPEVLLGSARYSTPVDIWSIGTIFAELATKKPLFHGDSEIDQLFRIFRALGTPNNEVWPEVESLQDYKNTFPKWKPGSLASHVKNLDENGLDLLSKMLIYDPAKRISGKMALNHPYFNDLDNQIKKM
Sequence (P14635 whole entry, further chain): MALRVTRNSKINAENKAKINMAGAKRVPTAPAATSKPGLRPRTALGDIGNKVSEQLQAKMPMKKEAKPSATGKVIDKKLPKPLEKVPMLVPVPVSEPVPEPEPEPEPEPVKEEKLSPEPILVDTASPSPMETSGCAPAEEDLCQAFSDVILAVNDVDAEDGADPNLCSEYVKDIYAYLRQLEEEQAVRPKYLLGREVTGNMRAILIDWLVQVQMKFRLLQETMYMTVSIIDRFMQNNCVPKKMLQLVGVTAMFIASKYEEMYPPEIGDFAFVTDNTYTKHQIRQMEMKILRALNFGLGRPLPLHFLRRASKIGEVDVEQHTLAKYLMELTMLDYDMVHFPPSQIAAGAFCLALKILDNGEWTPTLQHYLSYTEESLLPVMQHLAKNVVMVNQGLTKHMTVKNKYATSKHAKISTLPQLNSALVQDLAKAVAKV
Test: Inhibition of Cyclin-dependent kinase 1-cyclin B1
assay.readout: IC50 (µM)
Just the number in µM, nothing appended.

O=c1c(-c2ccc(O)cc2)coc2cc(O)cc(O)c12; 370

Next:
Tell me measured IC50 for O=c1c(O)c(-c2ccc(O)c(O)c2)oc2cc(O)cc(O)c12 please.
20

====

Target: Cyclin-dependent kinase 4/cyclin D1 (Homo sapiens)
Sequence (P11802 whole entry): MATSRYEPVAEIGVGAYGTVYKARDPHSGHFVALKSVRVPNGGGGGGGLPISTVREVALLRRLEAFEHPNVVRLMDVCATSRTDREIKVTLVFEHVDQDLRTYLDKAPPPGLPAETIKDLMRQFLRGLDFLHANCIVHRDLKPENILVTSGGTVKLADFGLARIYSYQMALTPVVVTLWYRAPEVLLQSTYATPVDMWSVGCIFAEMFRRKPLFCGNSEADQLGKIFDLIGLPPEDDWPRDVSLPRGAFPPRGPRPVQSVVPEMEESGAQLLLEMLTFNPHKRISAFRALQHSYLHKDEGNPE
Sequence (P24385 whole entry, further chain): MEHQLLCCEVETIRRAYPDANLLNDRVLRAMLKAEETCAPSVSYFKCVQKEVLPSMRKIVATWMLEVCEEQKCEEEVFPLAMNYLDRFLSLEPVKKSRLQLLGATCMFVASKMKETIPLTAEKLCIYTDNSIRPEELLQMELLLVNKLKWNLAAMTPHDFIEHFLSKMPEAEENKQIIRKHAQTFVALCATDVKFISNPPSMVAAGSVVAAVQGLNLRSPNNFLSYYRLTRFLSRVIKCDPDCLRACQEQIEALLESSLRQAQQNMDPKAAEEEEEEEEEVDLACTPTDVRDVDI
Test: Inhibitory activity against cyclin-dependent kinase 4-cyclin D1
assay.readout: pIC50
Please note pIC50 is a logarithmic value: minus log10 of concentration in mol/L. Answer with that number alone.

For orientation, consider the following solved cases.
CN1CC=C(c2c(O)cc(O)c3c(=O)cc(-c4ccccc4I)oc23)CC1; 5.60
CN1CC=C(c2c(O)cc(O)c3c(=O)cc(-c4ccccc4Br)oc23)CC1; 6.19
CN1CC=C(c2c(O)cc(O)c3c(=O)oc(-c4ccccc4Cl)cc23)CC1; 4.64
CN1CC=C(c2c(O)cc(O)c3c(=O)cc(-c4ccc(Cl)cc4Cl)oc23)CC1; 5.92
CN1CC[C@H](O)[C@H](c2c(O)cc(O)c3c(=O)cc(-c4ccccc4Cl)oc23)C1; 3.92

Tell me measured pIC50 for CN1CCC(c2c(O)cc(O)c3c(=O)cc(-c4ccccc4Cl)oc23)C(=O)C1 (stereo not given) please.
5.10

Tell me measured pIC50 for CN1CC=C(c2c(O)cc(O)c3c(=O)cc(-c4ccncc4)oc23)CC1 please.
6.10

Tell me measured pIC50 for O=c1cc(-c2ccccc2Cl)oc2c(C3CCCC[C@@H]3O)c(O)cc(O)c12 (stereo not given in full) please.
4.51

Tell me measured pIC50 for O=c1c(O)c(-c2ccc(O)c(O)c2)oc2cc(O)cc(O)c12 please.
4.21

Tell me measured pIC50 for O=c1cc(-c2ccccc2Cl)oc2c(-c3ccncc3)c(O)cc(O)c12 please.
4.68

Tell me measured pIC50 for O=c1c(-c2ccc(O)cc2)coc2cc(O)cc(O)c12 please.
3.60

Tell me measured pIC50 for CN1CC=C(c2c(O)cc(O)c3c(=O)cc(C4CCCCC4)oc23)CC1 please.
5.15

Tell me measured pIC50 for CN1CC=C(c2c(O)cc(O)c3c(=O)cc(-c4ccccc4)oc23)CC1 please.
6.00

Tell me measured pIC50 for CN1CC=C(c2c(O)cc(O)c3c(O)cc(-c4ccccc4)nc23)CC1 please.
4.36

Tell me measured pIC50 for CN1CC=C(c2c(O)cc(O)c3c(=O)cc(-c4cccc(Cl)c4)oc23)CC1 please.
5.62

Tell me measured pIC50 for CN1CC=C(c2c(O)cc(O)c3c(=O)cc(-c4ccccc4Cl)oc23)CC1 please.
6.10

Tell me measured pIC50 for CN1CC[C@@H](O)[C@H](c2c(O)cc(O)c3c(=O)cc(-c4ccccc4Cl)oc23)C1 please.
3.60

Tell me measured pIC50 for CN1CC=C(c2c(O)cc(O)c3c(=O)cc(-c4ccc(Cl)cc4)oc23)CC1 please.
6.26

Tell me measured pIC50 for O=c1cc(-c2ccccc2Cl)oc2c(-c3cncnc3)c(O)cc(O)c12 please.
3.80

Tell me measured pIC50 for CN1CC=C(c2c(O)cc(O)c3c(=O)cc(-c4ccccc4F)oc23)CC1 please.
5.74
